# TARGET OR SYSTEM: human recombinant CBL-b (human Biotin CBL-b recombinant protein a.a. 39-426) (Homo sapiens)
# Construct: human Biotin CBL-b recombinant protein a.a; 39-426; Biotin (biotinylated)
# ASSAY: Biochemical assay for CBL-b inhibition (ligand displacement TR-FRET)
# SETUP CONDITIONS: 50 nM CBL-b, 0.3 μM Bodipy FL-Probe, read-out: IC50 (CBL-b inhibition, group)
pIC50: −log10 of the molar value.
ENDPOINT LABEL: pIC50

Reference set, count: 5
Dear colleague, I am looking for the recorded pIC50 of the following compound: Cn1cnnc1CC1(c2ccc3c(c2)C(=O)N(c2cc(CNCC4(C)CCC4)cc(Cl)n2)C3)COC1 [Compound 172]
> 7.10

Dear colleague, I am looking for the recorded pIC50 of the following compound: Cn1cc(CNCc2cc(Cl)nc(N3Cc4ccc(C5(Cc6nncn6C)COC5)cc4C3=O)c2)cn1 [Compound 211]
5.30 to 6.52

Dear colleague, I am looking for the recorded pIC50 of the following compound: Cc1cc(C(C)N2CCC[C@H](C)C2)cc(N2Cc3ccc(C4(Cc5nncn5C)COC4)cc3C2=O)c1 (stereo partly drawn) [Compound 12]
> 7.10

Dear colleague, I am looking for the recorded pIC50 of the following compound: C[C@H]1CCCN(Cc2cc(Cl)nc(N3Cc4ccc([C@]5(c6nncn6C)C[C@@H](C)C5)cc4C3=O)c2)C1 [Compound 58]
5.30 to 6.52

Dear colleague, I am looking for the recorded pIC50 of the following compound: Cc1cc(CNCCCC(F)(F)F)cc(N2Cc3ccc(-c4ccc(F)cc4-c4nncn4C)cc3C2=O)n1 [Compound 328]
> 7.10

Your task in this section: give pIC50 for each listed record.
1. Cc1cc(CN[C@H](CO)CC(C)C)cc(N2Cc3ccc(-c4ccc(F)cc4-c4nncn4C)cc3C2=O)n1 [Compound 322]
2. Cc1cc(CN2CCC[C@@H]2CO)cc(N2Cc3ccc(-c4ccc(F)cc4-c4nncn4C)cc3C2=O)n1 [Compound 286]
3. Cc1cc(CNCC2CC2)cc(N2Cc3c(cc(-c4ccc(F)cc4-c4nncn4C)cc3C(F)(F)F)C2=O)n1 [Compound 256]
4. CCc1cc(CN2CCC[C@H](C)C2)cc(N2Cc3ccc(C4(Cc5nncn5C)COC4)cc3C2=O)c1 [Compound 11]
5. CC(NCc1cc(Cl)nc(N2Cc3ccc(C4(Cc5nncn5C)COC4)cc3C2=O)c1)C1CC1 (stereo not drawn) [Compound 131]
6. Cn1cnnc1CC1(c2ccc3c(c2)C(=O)N(c2cc(CN4CCc5ccccc5C4)cc(C(F)(F)F)n2)C3)COC1 [Compound 31]
7. Cn1cnnc1CC1(c2ccc3c(c2)C(=O)N(c2cc(CN4CCC5(CCCO5)CC4)cc(C(F)(F)F)n2)C3)COC1 [Compound 32]
8. C[C@@H]1CCN(Cc2cc(Cl)nc(N3Cc4ccc(C5(Cc6nncn6C)COC5)cc4C3=O)c2)C1 [Compound 68]

1. 6.52 to 7.10
2. 6.52 to 7.10
3. > 7.10
4. 6.52 to 7.10
5. > 7.10
6. 5.30 to 6.52
7. 5.30 to 6.52
8. 6.52 to 7.10

###

# TARGET OR SYSTEM: human recombinant CBL-b (human Biotin CBL-b recombinant protein a.a. 39-426) (Homo sapiens, UniProt Q13191)
# Construct: human Biotin CBL-b recombinant protein a.a; 39-426; Biotin (biotinylated)
# Sequence (Q13191 39-426): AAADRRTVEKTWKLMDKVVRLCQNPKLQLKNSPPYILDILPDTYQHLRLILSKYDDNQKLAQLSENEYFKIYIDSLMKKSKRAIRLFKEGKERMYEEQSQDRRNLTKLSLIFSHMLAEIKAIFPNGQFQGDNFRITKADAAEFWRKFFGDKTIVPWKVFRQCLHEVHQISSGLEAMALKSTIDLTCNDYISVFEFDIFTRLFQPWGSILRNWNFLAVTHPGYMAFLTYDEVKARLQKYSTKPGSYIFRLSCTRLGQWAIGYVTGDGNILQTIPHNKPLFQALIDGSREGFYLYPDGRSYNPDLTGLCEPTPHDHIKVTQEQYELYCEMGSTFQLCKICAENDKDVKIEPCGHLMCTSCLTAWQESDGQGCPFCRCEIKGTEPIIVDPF
# ASSAY: Biochemical assay for CBL-b inhibition (ligand displacement TR-FRET)
# SETUP CONDITIONS: 50 nM CBL-b, 0.3 μM Bodipy FL-Probe, read-out: IC50 (CBL-b inhibition, group)
pIC50: −log10 of the molar value.
Exercise: for every item that follows, state its recorded pIC50.

Reference set, count: 2
Dear colleague, I am looking for the recorded pIC50 of the following compound: C[C@H](Cc1nncn1C)c1ccc2c(c1)C(=O)N(c1cc(CNCCC(F)(F)F)cc(Cl)n1)C2 (single isomer, unassigned)
> 7.10

Dear colleague, I am looking for the recorded pIC50 of the following compound: C[C@@H](NC[C@H]1CCCO1)c1cc(Cl)nc(N2Cc3ccc(C4(Cc5nncn5C)COC4)cc3C2=O)c1 (single isomer, unassigned)
6.52 to 7.10

Could you now consider this next compound?
Dear colleague, I am looking for the recorded pIC50 of the following compound: C[C@H]1CCCN(Cc2cc(Cl)nc(N3Cc4ccc([C@H](Cc5nncn5C)C(F)(F)F)cc4C3=O)c2)C1 (single isomer, unassigned)
> 7.10

###

# TARGET OR SYSTEM: human recombinant CBL-b (human Biotin CBL-b recombinant protein a.a. 39-426) (Homo sapiens, UniProt Q13191)
# Construct: human Biotin CBL-b recombinant protein a.a; 39-426; Biotin (biotinylated)
# ASSAY: Biochemical assay for CBL-b inhibition (ligand displacement TR-FRET)
# SETUP CONDITIONS: 50 nM CBL-b, 0.3 μM Bodipy FL-Probe, read-out: IC50 (CBL-b inhibition, group)
pIC50: −log10 of the molar value.
ENDPOINT LABEL: pIC50

Your task in this section: give pIC50 for each listed record.
1. Cc1cc(CNCC2(CO)CCC2)cc(N2Cc3ccc(-c4ccc(F)cc4-c4nncn4C)cc3C2=O)n1 [Compound 308]
2. C[C@H]1CCCN(Cc2cc(Cl)nc(N3Cc4ccc(CCc5nncn5C)cc4C3=O)c2)C1 [Compound 154]
3. Cc1cc(CNCC(C)C)cc(N2Cc3ccc(-c4ccc(F)cc4-c4nncn4C)cc3C2=O)n1 [Compound 305]
4. Cn1cnnc1CC1(c2ccc3c(c2)C(=O)N(c2cc(CN4CC[C@H](F)C4)cc(C(F)(F)F)n2)C3)COC1 [Compound 61]
5. C[C@@H]1CN(Cc2cc(N3Cc4ccc(C5(Cc6nncn6C)COC5)cc4C3=O)nc(C(F)(F)F)c2)CCO1 [Compound 46]
6. Cc1cc(CNCC2CCC2)cc(N2Cc3ccc(-c4ccc(Cl)cc4-c4nncn4C)cc3C2=O)n1 [Compound 274]

> 7.10
6.52 to 7.10
> 7.10
5.30 to 6.52
5.30 to 6.52
> 7.10

###

Exercise: for every item that follows, state its recorded pIC50.
# TARGET OR SYSTEM: human recombinant CBL-b (human Biotin CBL-b recombinant protein a.a. 39-426) (Homo sapiens)
# Construct: human Biotin CBL-b recombinant protein a.a; 39-426; Biotin (biotinylated)
# ASSAY: Biochemical assay for CBL-b inhibition (ligand displacement TR-FRET)
# SETUP CONDITIONS: 50 nM CBL-b, 0.3 μM Bodipy FL-Probe, read-out: IC50 (CBL-b inhibition, group)
pIC50: −log10 of the molar value.

Your task in this section: give pIC50 for each listed record.
1. CC1CCCCN1Cc1cc(N2Cc3ccc(C4(Cc5nncn5C)COC4)cc3C2=O)nc(C(F)(F)F)c1 (centres unmarked) [Compound 45]
2. Cn1cnnc1CC1(c2ccc3c(c2)C(=O)N(c2cc(CNCC4CC4(F)F)cc(Cl)n2)C3)COC1 (centres unmarked) [Compound 175]
3. Cc1cc(CNS(C)(=O)=O)cc(N2Cc3ccc(-c4ccc(F)cc4-c4nncn4C)cc3C2=O)n1 [Compound 283]
4. C[C@@H]1CN(Cc2cc(N3Cc4ccc(C5(Cc6nncn6C)COC5)cc4C3=O)nc(C(F)(F)F)c2)C[C@H](C)N1 [Compound 98]
5. Cn1cnnc1CC1(c2ccc3c(c2)C(=O)N(c2cc(CNCC4(F)CC4)cc(Cl)n2)C3)COC1 [Compound 130]

5.30 to 6.52
> 7.10
6.52 to 7.10
5.30 to 6.52
6.52 to 7.10

###

Exercise: for every item that follows, state its recorded IC50.
# TARGET OR SYSTEM: human recombinant CBL-b (human Biotin CBL-b recombinant protein a.a. 39-426) (Homo sapiens, UniProt Q13191)
# Construct: human Biotin CBL-b recombinant protein a.a; 39-426; Biotin (biotinylated)
# ASSAY: Biochemical assay for CBL-b inhibition (ligand displacement TR-FRET)
# SETUP CONDITIONS: 50 nM CBL-b, 0.3 μM Bodipy FL-Probe, read-out: IC50 (CBL-b inhibition, group)

Reference set, count: 3
Dear colleague, I am looking for the recorded IC50 of the following compound: CN(CCC(F)(F)F)Cc1cc(Cl)nc(N2Cc3ccc(C4(Cc5nncn5C)COC4)cc3C2=O)c1
80 to 300 nM

Dear colleague, I am looking for the recorded IC50 of the following compound: CC(CNCc1cc(Cl)nc(N2Cc3ccc(C4(Cc5nncn5C)COC4)cc3C2=O)c1)C(F)(F)F (stereo not drawn)
< 80 nM

Dear colleague, I am looking for the recorded IC50 of the following compound: C[C@H]1CCCN(Cc2cc(C3CC3)cc(N3Cc4ccc(C5(Cc6nncn6C)COC5)cc4C3=O)c2)C1
80 to 300 nM

Your task in this section: give IC50 for each listed record.
1. Cc1cc(CNCC2CC2)cc(N2Cc3ccc(-c4ccc(Cl)cc4-c4nnc5ccccn45)cc3C2=O)n1
2. CC(NCc1cscn1)c1cc(Cl)nc(N2Cc3ccc(C4(Cc5nncn5C)COC4)cc3C2=O)c1 (stereo not drawn)
3. COc1ccc(-c2ccc3c(c2)C(=O)N(c2cc(CNCC4CC4)cc(C)n2)C3)c(-c2nncn2C)c1

["300 to 5000 nM", "< 80 nM", "< 80 nM"]

// data source = patent US20260226073A1
